Measured values drawn from the supplement of paper PMC3334620 for this set.

# Experimental Target: Sut1 (UniProt P53032)
# Sequence: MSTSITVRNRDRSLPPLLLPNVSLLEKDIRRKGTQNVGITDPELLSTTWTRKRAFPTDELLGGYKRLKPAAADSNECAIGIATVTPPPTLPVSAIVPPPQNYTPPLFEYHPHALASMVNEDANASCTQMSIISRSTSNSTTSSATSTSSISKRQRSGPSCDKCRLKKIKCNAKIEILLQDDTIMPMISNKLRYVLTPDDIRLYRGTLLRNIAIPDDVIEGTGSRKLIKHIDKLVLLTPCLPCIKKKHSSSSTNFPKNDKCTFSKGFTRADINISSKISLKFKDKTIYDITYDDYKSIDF
# Assay Summary: PBM E-score (8-mer binding enrichment) (E-score (-0.5 to 0.5)); higher = stronger / more preferred TF binding
# Reported Conditions: protein concentration: 200 nM; construct: GST-full length
Over roughly 33,000 sequences, “E-score (-0.5 to 0.5)” has its median near -0.017; the highest 2% begin near 0.3. The list comes from a sample in which the highest values are over-represented; it also holds close analogues and randomly drawn sequences.
This listing pairs sequences with measured PBM E-score.

GCCGGACA | 0.273
CCCGGACA | 0.354

QUERY: Returns the measured PBM E-score for the input sequence. Input: ATACGAGA
RESULT: -0.0254

QUERY: Returns the measured PBM E-score for the input sequence. Input: CCGTACTA
RESULT: 0.297

QUERY: Returns the measured PBM E-score for the input sequence. Input: CCACAAAA
RESULT: 0.0574

QUERY: Returns the measured PBM E-score for the input sequence. Input: GTCCGAAA
RESULT: 0.447

###

# Experimental Target: Sut1 (UniProt P53032)
# Sequence: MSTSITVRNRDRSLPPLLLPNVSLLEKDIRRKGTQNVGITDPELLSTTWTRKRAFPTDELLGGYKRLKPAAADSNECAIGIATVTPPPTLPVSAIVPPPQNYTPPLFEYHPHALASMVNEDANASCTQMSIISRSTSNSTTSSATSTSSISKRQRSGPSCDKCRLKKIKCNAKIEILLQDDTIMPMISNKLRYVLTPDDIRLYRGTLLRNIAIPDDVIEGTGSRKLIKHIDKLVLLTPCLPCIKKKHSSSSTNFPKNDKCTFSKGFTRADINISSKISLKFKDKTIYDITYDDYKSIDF
# Assay Summary: PBM E-score (8-mer binding enrichment) (E-score (-0.5 to 0.5)); higher = stronger / more preferred TF binding
# Reported Conditions: protein concentration: 200 nM; construct: GST-full length
The full ranking holds about 33,000 sequences; the median of “E-score (-0.5 to 0.5)” is about -0.017, and the highest 2% start at about 0.3. This excerpt belongs to a sample that is enriched for the highest values.
The recorded PBM E-score of each item maps onto one of these classes: lo = under -0.05, med = from -0.05 up to 0.1, hi = 0.1 and over

AACCGGCC | lo

QUERY: Textbook exercise: identify the category of the sequence given here, AACCGGAA , according to its measured value.
RESULT: hi

QUERY: Textbook exercise: identify the category of the sequence given here, AGAACCAT , according to its measured value.
RESULT: hi

QUERY: Textbook exercise: identify the category of the sequence given here, CTACACAG , according to its measured value.
RESULT: lo

QUERY: Textbook exercise: identify the category of the sequence given here, CACCGGTC , according to its measured value.
RESULT: lo

QUERY: Textbook exercise: identify the category of the sequence given here, CACCCCGA , according to its measured value.
RESULT: hi

QUERY: Textbook exercise: identify the category of the sequence given here, AGTCCGAC , according to its measured value.
RESULT: hi

QUERY: Textbook exercise: identify the category of the sequence given here, TCACCGCA , according to its measured value.
RESULT: lo

QUERY: Textbook exercise: identify the category of the sequence given here, GGAAGAGA , according to its measured value.
RESULT: med

QUERY: Textbook exercise: identify the category of the sequence given here, AATCCGAA , according to its measured value.
RESULT: hi

QUERY: Textbook exercise: identify the category of the sequence given here, AGCAATTG , according to its measured value.
RESULT: hi

QUERY: Textbook exercise: identify the category of the sequence given here, CACCGGCC , according to its measured value.
RESULT: lo

QUERY: Textbook exercise: identify the category of the sequence given here, AGATTGCC , according to its measured value.
RESULT: med

QUERY: Textbook exercise: identify the category of the sequence given here, TACCGGGA , according to its measured value.
RESULT: hi

QUERY: Textbook exercise: identify the category of the sequence given here, TCCCTAGA , according to its measured value.
RESULT: med

###

# Experimental Target: Sut1 (UniProt P53032)
# Sequence: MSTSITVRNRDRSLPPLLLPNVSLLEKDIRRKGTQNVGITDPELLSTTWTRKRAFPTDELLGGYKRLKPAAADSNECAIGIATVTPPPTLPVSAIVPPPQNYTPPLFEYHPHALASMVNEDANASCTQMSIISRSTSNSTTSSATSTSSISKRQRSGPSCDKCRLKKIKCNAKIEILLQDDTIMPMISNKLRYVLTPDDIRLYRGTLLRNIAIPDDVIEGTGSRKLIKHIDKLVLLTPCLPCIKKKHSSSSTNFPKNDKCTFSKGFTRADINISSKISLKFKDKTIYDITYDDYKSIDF
# Assay Summary: PBM E-score (8-mer binding enrichment) (E-score (-0.5 to 0.5)); higher = stronger / more preferred TF binding
# Reported Conditions: protein concentration: 200 nM; construct: GST-full length
In all, about 33,000 sequences were measured (“E-score (-0.5 to 0.5)”: median about -0.017, highest 2% from about 0.3 on). This excerpt belongs to a sample that is enriched for the highest values.
Observed Property: PBM E-score
Give the value as a plain number.

These solved cases illustrate the format of a correct answer.
CGGAGCGA | 0.325
TAGCCGGA | 0.282

QUERY: Returns the measured PBM E-score for the input sequence. Input: ATGCGGAA
RESULT: 0.0745

QUERY: Returns the measured PBM E-score for the input sequence. Input: CTCGGATA
RESULT: 0.126

QUERY: Returns the measured PBM E-score for the input sequence. Input: CTTGGAGA
RESULT: -0.00672

QUERY: Returns the measured PBM E-score for the input sequence. Input: CGCCCTTC
RESULT: -0.0609

QUERY: Returns the measured PBM E-score for the input sequence. Input: AATACGGA
RESULT: 0.286

QUERY: Returns the measured PBM E-score for the input sequence. Input: CGCCATTA
RESULT: 0.0246

QUERY: Returns the measured PBM E-score for the input sequence. Input: AATATATG
RESULT: 0.242

QUERY: Returns the measured PBM E-score for the input sequence. Input: CTAGGAGC
RESULT: -0.306

QUERY: Returns the measured PBM E-score for the input sequence. Input: ACCGGGAA
RESULT: 0.145

###

# Experimental Target: Sut1 (UniProt P53032)
# Sequence: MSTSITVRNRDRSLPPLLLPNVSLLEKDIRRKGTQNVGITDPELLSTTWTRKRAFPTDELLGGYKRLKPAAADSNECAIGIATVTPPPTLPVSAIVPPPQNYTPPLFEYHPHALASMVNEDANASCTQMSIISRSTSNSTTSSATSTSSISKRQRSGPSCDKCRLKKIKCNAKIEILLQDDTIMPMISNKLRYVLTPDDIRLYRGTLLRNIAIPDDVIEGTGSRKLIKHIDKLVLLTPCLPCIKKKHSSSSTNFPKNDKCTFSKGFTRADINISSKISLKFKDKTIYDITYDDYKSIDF
# Assay Summary: PBM E-score (8-mer binding enrichment) (E-score (-0.5 to 0.5)); higher = stronger / more preferred TF binding
# Reported Conditions: protein concentration: 200 nM; construct: GST-full length
Whole data set: some 33,000 sequences, median “E-score (-0.5 to 0.5)” near -0.017, cut for the highest 2% near 0.3. The sample holds the highest values, similar sequences and a random draw of the others, so the mix is not that of the screen.
The recorded PBM E-score of each item maps onto one of these classes: zone 1 (below -0.08), zone 2 (-0.08 to below 0.1), zone 3 (0.1 or more)

Please review the entries below; each comes with its answer.
AAAGTATA | zone 3
CTCCGGCC | zone 3
AAACAGTC | zone 1
ACACCGCA | zone 2
CTCCGGCA | zone 3
CCTCCCTA | zone 1
AGATTTAA | zone 2
AGAAGCCC | zone 3
GGCCGGCA | zone 2
CGATTTAA | zone 3

QUERY: Textbook exercise: identify the category of the sequence given here, AGCCCATC , according to its measured value.
RESULT: zone 1

QUERY: Textbook exercise: identify the category of the sequence given here, GCGGCCGA , according to its measured value.
RESULT: zone 1

QUERY: Textbook exercise: identify the category of the sequence given here, GGTTATGA , according to its measured value.
RESULT: zone 2

QUERY: Textbook exercise: identify the category of the sequence given here, AACTATCT , according to its measured value.
RESULT: zone 2

QUERY: Textbook exercise: identify the category of the sequence given here, CCCCGGCA , according to its measured value.
RESULT: zone 2

QUERY: Textbook exercise: identify the category of the sequence given here, ATCCTCCA , according to its measured value.
RESULT: zone 1

QUERY: Textbook exercise: identify the category of the sequence given here, GACCGGCA , according to its measured value.
RESULT: zone 1
